// provenance: paper doi:10.1101/862326

# Assay system: T1, TRBP2-dsRBD1 (UniProt Q15633 1-105)
# T1 sequence: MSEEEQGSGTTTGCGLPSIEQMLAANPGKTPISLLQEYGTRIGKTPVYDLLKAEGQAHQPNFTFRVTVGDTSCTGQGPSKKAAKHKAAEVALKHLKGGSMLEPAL
# Protocol details: ITC
Readout: Kd (nM)
Report the figure in nM without appending any unit label.

The reported value for D10RNA (dsRNA) RNA 1: UUAUAAAUGC RNA 2: GCAUUUAUGA in terms of Kd is 2210
